Target: T1, Human TIGIT-His (human, UniProt Q495A1 22-141, biotinylated in the ForteBio Fab assay)
T1 construct: bought (Creative Biomart); also called Biotinylated Human TIGIT HIS; TIGIT-His monomer; not shown: His tag
T1 sequence (looked up): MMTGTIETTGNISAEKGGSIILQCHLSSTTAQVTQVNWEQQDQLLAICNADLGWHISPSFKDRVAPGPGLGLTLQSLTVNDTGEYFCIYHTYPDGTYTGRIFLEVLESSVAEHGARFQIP
Test: MSD-SET, monovalent (Fab or mAb titrated, not said which)
endpointName: Kd (nM)
Express the result in nM but write the number alone.

Report Kd for anti-TIGIT antibody clone 29527 (IgG) (antibody, V domains shown) VH: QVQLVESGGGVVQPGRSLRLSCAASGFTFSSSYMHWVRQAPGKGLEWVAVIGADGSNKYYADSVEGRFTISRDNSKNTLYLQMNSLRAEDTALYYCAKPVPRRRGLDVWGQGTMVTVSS VL: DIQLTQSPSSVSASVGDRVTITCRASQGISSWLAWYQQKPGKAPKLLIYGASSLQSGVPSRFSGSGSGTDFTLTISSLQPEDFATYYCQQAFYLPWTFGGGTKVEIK please.
0.64

Next record, please: anti-TIGIT antibody clone 29520 (IgG) (antibody, V domains shown) VH: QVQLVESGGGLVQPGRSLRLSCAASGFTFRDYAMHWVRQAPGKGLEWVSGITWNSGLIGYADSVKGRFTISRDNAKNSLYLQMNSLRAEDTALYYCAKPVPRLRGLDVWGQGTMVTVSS VL: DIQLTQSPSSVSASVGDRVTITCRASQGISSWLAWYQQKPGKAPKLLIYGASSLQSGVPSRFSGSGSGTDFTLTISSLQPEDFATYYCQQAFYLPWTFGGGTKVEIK
0.21

Next record, please: anti-TIGIT antibody clone 29499 (IgG) (antibody, V domains shown) VH: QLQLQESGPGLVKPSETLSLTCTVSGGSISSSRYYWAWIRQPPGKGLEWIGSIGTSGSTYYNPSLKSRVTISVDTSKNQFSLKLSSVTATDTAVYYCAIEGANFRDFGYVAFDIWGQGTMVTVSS VL: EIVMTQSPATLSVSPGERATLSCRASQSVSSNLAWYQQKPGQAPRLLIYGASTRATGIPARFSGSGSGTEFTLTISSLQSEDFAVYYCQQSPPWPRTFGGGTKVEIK
0.019
